- assay remarks: Plasma cholesterol and triglycerides in C57BL/6 mice (Olympus AU400e)
- Format: in vivo, mouse
- setup conditions: Week 0 (before treatment), 50 mg/kg/week
Oligonucleotides are written 5' to 3', each unit as a sugar letter and its base; * is a phosphorothioate linkage, no mark a phosphodiester; rarer units and linkages stand in square brackets, end groups in braces. Plain capitals give the bases only. e = 2'-O-(2-methoxyethyl) (MOE); [5mC] = 5-methylcytosine; d = 2'-deoxy (DNA)
Below: a set of entries, each annotated with reported total cholesterol levels.
result type: total cholesterol levels (mg/dL)

{"columns": ["residue codes", "result value"],
 "data": [
  ["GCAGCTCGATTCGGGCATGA (antisense eG*e[5mC]*eA*eG*e[5mC]*dT*d[5mC]*dG*dA*dT*dT*d[5mC]*dG*dG*dG*e[5mC]*eA*eT*eG*eA) [ISIS 447118]", 71],
  ["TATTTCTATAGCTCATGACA (antisense eT*eA*eT*eT*eT*d[5mC]*dT*dA*dT*dA*dG*d[5mC]*dT*d[5mC]*dA*eT*eG*eA*e[5mC]*eA) [ISIS 447144]", 75],
  ["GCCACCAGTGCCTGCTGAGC (antisense eG*e[5mC]*e[5mC]*eA*e[5mC]*d[5mC]*dA*dG*dT*dG*d[5mC]*d[5mC]*dT*dG*d[5mC]*eT*eG*eA*eG*e[5mC]) [ISIS 447143]", 70],
  ["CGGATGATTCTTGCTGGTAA (antisense e[5mC]*eG*eG*eA*eT*dG*dA*dT*dT*d[5mC]*dT*dT*dG*d[5mC]*dT*eG*eG*eT*eA*eA) [ISIS 447114]", 66]
]}
